# MEASUREMENT_PROTOCOL: Confirmatory Assay for Inhibitors of Human Galactokinase (GALK): Phenol-HRP redox assay counterscreen
# EXPERIMENTAL_CONDITIONS: Phenol red-HRP H2O2 redox cycling, absorbance 600 nm; series mostly up to 115 µM
The list shows a part of the results. Activity calls are given as the source filed them. Calls follow the shape of the dose curve; as a rule, active = well fitted inhibition curve with a large enough effect; inconclusive = small, poorly fitted or top-dose-only effect; inactive = flat fitted curve, though single readings scatter.
// classify into active, inactive

MOLECULE: COc1cccc2cc(-c3cc(=O)oc4cc(C)c(O)cc34)oc12
CATEGORY: inactive
//
MOLECULE: N#C/C(=C(/O)Cc1cccc2ccccc12)c1nc2ccccc2s1
CATEGORY: inactive
//
MOLECULE: CCS(=O)(=O)C1=NSC2=NC(=O)/C(=C\c3ccc(OS(=O)(=O)c4ccccc4)cc3)C(=N)N21
CATEGORY: inactive

Outcome logged for O=C(Nc1nnc(S(=O)(=O)N2CCOCC2)s1)c1cccc(Br)c1 in this assay:
inactive

Look up the recorded call for CCOC(=O)c1c(C)[nH]c2c1-c1ccccc1C(=O)C2=O in this test.
active
